Recorded Plasma (0.01 μM), activity in % of control for the following compounds
# study-system: Dopamine beta hydroxylase (Homo sapiens)
# Construct: 125 μl of plasma; tissue Instituto Português do Sangue Transplantação; host or cells: human plasma from healthy donors
# Sequence (P09172 40-617 limits assumed): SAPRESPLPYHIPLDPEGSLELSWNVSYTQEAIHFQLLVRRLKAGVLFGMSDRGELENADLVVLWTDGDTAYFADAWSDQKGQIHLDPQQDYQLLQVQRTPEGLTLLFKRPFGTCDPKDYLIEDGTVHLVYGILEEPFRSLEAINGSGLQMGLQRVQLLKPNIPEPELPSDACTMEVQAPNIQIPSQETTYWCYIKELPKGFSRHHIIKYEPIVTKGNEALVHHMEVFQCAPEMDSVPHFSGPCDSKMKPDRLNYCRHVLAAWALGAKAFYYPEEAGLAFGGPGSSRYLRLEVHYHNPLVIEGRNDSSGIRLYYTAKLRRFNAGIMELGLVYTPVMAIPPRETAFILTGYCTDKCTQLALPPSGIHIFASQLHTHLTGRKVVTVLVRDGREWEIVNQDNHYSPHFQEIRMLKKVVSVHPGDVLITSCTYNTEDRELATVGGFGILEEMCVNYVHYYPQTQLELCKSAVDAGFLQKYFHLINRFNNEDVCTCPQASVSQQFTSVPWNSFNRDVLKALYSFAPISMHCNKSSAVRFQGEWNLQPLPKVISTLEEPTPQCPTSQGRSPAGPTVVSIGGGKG
# method-description: Dopamine beta hydroxylase activity in human plasma
# Assay type: biochemical
# condition-info: inhibitor 0.01 μM

Solved cases below.
compound	experimental-result
Cn1c(CC(=O)N[C@@H]2CCOC2)c2n(c1=S)C[C@@H](c1c(F)ccc(F)c1F)C2	83.6 % of control
Cn1c(CC(=O)NCC2CCCO2)c2n(c1=S)C[C@@H](c1c(F)c(F)cc(F)c1F)C2 (stereo in doubt) [Example 391]	83.8 % of control
Cn1cc(CNC(=O)Cc2c3n(c(=S)n2C)C[C@@]2(c4cc(Cl)ccc4F)C[C@@H]32)cn1	42.3 % of control

In the following, a different compound is considered.
I would be grateful if you could share the reported Plasma (0.01 μM), activity in % of control for O=C(Cc1[nH]c(=S)n2c1C[C@H](c1c(F)ccc(Br)c1F)C2)N1CCCC(O)C1 (stereo partly shown) .
79.3 % of control
